For each record, write down the corresponding IC50.
Target: JAK3 (Homo sapiens)
Construct: purchased Invitrogen
Sequence (P52333 1-1124): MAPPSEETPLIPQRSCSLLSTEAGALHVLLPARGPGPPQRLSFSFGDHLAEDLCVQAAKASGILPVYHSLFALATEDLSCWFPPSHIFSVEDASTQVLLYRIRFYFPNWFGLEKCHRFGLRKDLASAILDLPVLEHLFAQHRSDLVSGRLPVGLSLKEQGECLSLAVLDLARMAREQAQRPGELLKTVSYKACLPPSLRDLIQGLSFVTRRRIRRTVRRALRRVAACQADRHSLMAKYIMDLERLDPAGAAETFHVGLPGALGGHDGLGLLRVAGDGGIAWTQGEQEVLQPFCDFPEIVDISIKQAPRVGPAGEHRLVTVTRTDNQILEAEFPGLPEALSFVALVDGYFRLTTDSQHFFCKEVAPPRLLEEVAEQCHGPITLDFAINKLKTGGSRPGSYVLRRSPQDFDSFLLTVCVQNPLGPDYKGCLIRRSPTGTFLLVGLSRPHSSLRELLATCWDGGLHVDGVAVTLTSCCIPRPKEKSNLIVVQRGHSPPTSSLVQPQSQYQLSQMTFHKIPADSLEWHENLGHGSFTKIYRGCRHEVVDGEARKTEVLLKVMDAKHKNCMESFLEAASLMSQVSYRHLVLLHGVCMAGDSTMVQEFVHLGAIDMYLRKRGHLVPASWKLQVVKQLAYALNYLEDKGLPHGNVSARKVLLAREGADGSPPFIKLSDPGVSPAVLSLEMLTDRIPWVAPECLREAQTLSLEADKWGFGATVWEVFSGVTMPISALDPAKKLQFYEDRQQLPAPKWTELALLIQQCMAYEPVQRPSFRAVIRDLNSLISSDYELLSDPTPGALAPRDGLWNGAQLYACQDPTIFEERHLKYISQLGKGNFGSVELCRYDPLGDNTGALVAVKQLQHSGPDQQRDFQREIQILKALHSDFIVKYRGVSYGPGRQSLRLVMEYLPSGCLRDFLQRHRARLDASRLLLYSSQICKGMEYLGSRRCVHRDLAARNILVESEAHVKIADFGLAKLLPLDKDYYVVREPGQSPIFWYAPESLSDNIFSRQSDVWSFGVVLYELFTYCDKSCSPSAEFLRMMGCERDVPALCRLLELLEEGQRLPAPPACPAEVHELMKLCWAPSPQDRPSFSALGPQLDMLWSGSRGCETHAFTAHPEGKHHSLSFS
Assay: Assay for JAK3 Inhibition (phosphorylation of FAM-labeled substrate, Caliper LC-3000)
Type: biochemical
Conditions: −log10(IC50), IC50 is the molar concentration at 50% inhibition; read-out: JAK3 pIC50 (converted)
Answer with a number only, understood to be in nM.

// IC50 lookup, compound = O=C1c2ccnc3[nH]cc(c23)CN1C1CCNCC1 , result: 3980

// IC50 lookup, compound = CC(C)[C@H](C(=O)NCCS(C)(=O)=O)N1Cc2c(F)cnc3[nH]cc(c23)C1=O , result: 251

// IC50 lookup, compound = O=C(NC1CCCC1)[C@@H](C1CCCC1)N1Cc2ccnc3[nH]cc(c23)C1=O , result: 251

// IC50 lookup, compound = O=C1c2ccnc3[nH]cc(c23)CN1C(CCO)C1CC1 (centres unmarked) , result: 316

// IC50 lookup, compound = CC(C)(C)[C@H](C(=O)NC1CCCC1)N1Cc2ccnc3[nH]cc(c23)C1=O , result: 10
